The entries below come with measured soluble fraction (log2) values attached.
# Method: soluble fraction after stress (log2 fold change); higher = more stays soluble; pooled small domains, quantitative proteomics
# Test Parameters: stress: pH 4
Number only, no unit.

Sample records with soluble fraction (log2):
[
  {
    "Sequence Entry": "HMNSVAASLREISIKVSGTEDADKVSRLQELSQMPKLDASGIAEANTLLEQLRAKYGDLGLSVDTARGRIV",
    "soluble fraction (log2)": 0.0674
  },
  {
    "Sequence Entry": "HMPLRPNQRQFIHLMVYQGLDRNEAYAQANNKVLTEENYESIRTAAAKTFYTPHVNNYYHALMEEIRDRE",
    "soluble fraction (log2)": -0.404
  },
  {
    "Sequence Entry": "HMEFLLAIQPFVLLTDHANLTFLREQTDSMMKRIQINISGFEIEFRYVPGLTNILPDKMSRV",
    "soluble fraction (log2)": -0.199
  },
  {
    "Sequence Entry": "HMSEQSEALRTGLDQLPINQRTALTLFHLHELNQSEVAKIMNISVGAVESLLFRGRQKMKQLLTSD",
    "soluble fraction (log2)": -0.157
  },
  {
    "Sequence Entry": "HMRMTKQRQAVLDELTRVTDFRSAQQIFEDLHSQGHRVGLATIYRSLQGLAEDGSVDTLRSSDGESLY",
    "soluble fraction (log2)": -0.169
  }
]

Q. // Input: HMSVPEAAERAIDVAQMRRALGELSPEQQRVLELAYFGGLTRQEIARATGTPLGTVHTRARLGLQNLRARL . Output its soluble fraction (log2) only.
A. -0.0378

Q. Provide measured soluble fraction (log2) value, entry: HMSDEAGKVLQLLRENGGYLPYNDRSDPEDIYAFFSMSKKTFKMTAGNLYKQKKIIFTNTGIKLTE
A. 0.317

Q. Respond only with soluble fraction (log2) recorded for HMIYQNVINLLKNRLNSSIYNIGDLLPSEKELAEHYDVSRNTLRKALKTLEEEGMIERRHGSGTYLRNK
A. 0.0262

====

// reported soluble fraction (log2) for each item listed
# Method: soluble fraction after stress (log2 fold change); higher = more stays soluble; pooled small domains, quantitative proteomics
# Test Parameters: stress: pH 4
Lab note: record the figure alone, no unit after it.

[
  {
    "Sequence Entry": "HMKPVTNHTVKFYVDDVLWKTVTVKHGGNVRLADLPMSDGKTFVGWSESVVNVTKDLTVFALFS",
    "Numeric Value": -0.478
  },
  {
    "Sequence Entry": "HMSDPDPAEQALLRQFMTRYAAYRRRGQHPAGAFRTASLEVFGQEPSGDLRDVIVDLESGLV",
    "Numeric Value": -0.59
  }
]

Q. Output soluble fraction (log2) of HMPRYQQIARQLKTAIEHGELKPGARLPSSRTWSQELGISRSTVESAYTELVAQGWLERRGQAGTFVSAQL
A. 0.0517

====

# Method: soluble fraction after stress (log2 fold change); higher = more stays soluble; pooled small domains, quantitative proteomics
# Test Parameters: stress: pH 4
Quantity: soluble fraction (log2)
I only need the number, thanks.

See these solved cases before continuing.
[
  {
    "Sequence Entry": "HMENEIPVPELVGMSEADAAAKLASLGLERDTQREATADEESVGKVLRQEPTPGEYVDEGHKVTIWVGE",
    "soluble fraction (log2)": 0.22
  },
  {
    "Sequence Entry": "HMDAEELNSKAKDEFTWLEDDESETNLEYRKMVSSEDMAIVAKVAPALAAKLKYQLAHAATNMV",
    "soluble fraction (log2)": -0.529
  },
  {
    "Sequence Entry": "HMTRNEFMTALRKRLSHLPAEEQDAALKYYEEYFDEAESEEEAARQLGSPDAIADRILADYGAG",
    "soluble fraction (log2)": -0.261
  },
  {
    "Sequence Entry": "HMKNENSLLVSRLAEEKIINRAKLVLMEYLKLSEPQAHRYIEKQAMDLQISRAEVAARVLETYE",
    "soluble fraction (log2)": 0.101
  },
  {
    "Sequence Entry": "HMSQDINVFIKTNPENATIIWDGESKGTNGIFKSNAGAHRLRIEMQGYESIDQDIQVSDKQFSFEYNLKKE",
    "soluble fraction (log2)": 0.22
  }
]

Q. Quickly give me recorded soluble fraction (log2) for HMDSAFVSDIRDAFDEAGVDSYRFFGTHSFKRGGVQLYRLLGVSDQEIKERGHWQTFSAYFAYVQA
A. -0.303

Q. # return recorded soluble fraction (log2) for input HMTPVEVNARGVHVDFSKGGILLEDVVRHLILEALRASEWKRGPAAQLLGISKETLRYRMEKYRLYPP
A. -0.706

Q. Quick one: give measured soluble fraction (log2) for HMSLEDMILSLSSRIRRGESLHFRELLVAIETKSGMVTIFMAVLELLKQQVMEMRYEDDDIIFT
A. -0.567
